Every entry's value here was drawn from ChEMBL document CHEMBL1126694.

- System: HCT-15
- Experiment summary: In vitro cytotoxicity against HCT-15 cell line.
- Format: functional
- Assay setup: Homo sapiens
Known GI50 of a selection of molecules

> print(dat)
                            chemical.smiles   result
1  COc1cc2c(c(OC)c1OC)-c1ccc(SC)c(=O)cc1[C@@H](NCc1ccc([N+](=O)[O-])cc1)CC2  < 10 nM

I'd like to know its GI50. The molecule in question is `COc1cc(CN[C@H]2CCc3cc(OC)c(OC)c(OC)c3-c3ccc(SC)c(=O)cc32)cc(OC)c1`
< 10 nM

I'd like to know its GI50. The molecule in question is `COc1cc2c(c(OC)c1OC)-c1ccc(SC)c(=O)cc1[C@@H](NC(=O)c1ccc([N+](=O)[O-])cc1)CC2`
< 10 nM

---

- Tested on: OVCAR
- Experiment summary: In vitro cytotoxicity against OVCAR cell line.
- Assay type: functional
- Assay setup: Homo sapiens
Known GI50 of a selection of compounds

I'd like to know its GI50. The compound in question is `COc1cc2c(c(OC)c1OC)-c1ccc(SC)c(=O)cc1[C@@H](NCc1ccc(C#N)cc1)CC2`
< 10 nM

I'd like to know its GI50. The compound in question is `COc1cc2c(c(OC)c1OC)-c1ccc(SC)c(=O)cc1[C@@H](NCc1ccc(F)cc1)CC2`
< 7.59 nM

I'd like to know its GI50. The compound in question is `COc1cc2c(c(OC)c1OC)-c1ccc(SC)c(=O)cc1[C@@H](NCc1ccc([N+](=O)[O-])cc1)CC2`
< 10 nM

I'd like to know its GI50. The compound in question is `COc1cc2c(c(OC)c1OC)-c1ccc(SC)c(=O)cc1[C@@H](NC(=O)c1ccc(F)cc1)CC2`
18.2 nM

I'd like to know its GI50. The compound in question is `COc1cc2c(c(OC)c1OC)-c1ccc(SC)c(=O)cc1[C@@H](NC(=O)c1ccc(Cl)cc1)CC2`
< 10 nM

I'd like to know its GI50. The compound in question is `COc1cc2c(c(OC)c1OC)-c1ccc(SC)c(=O)cc1[C@@H](NC(=O)c1ccc(C#N)cc1)CC2`
< 10 nM

I'd like to know its GI50. The compound in question is `COc1cc2c(c(OC)c1OC)-c1ccc(SC)c(=O)cc1[C@@H](NCc1ccccc1[N+](=O)[O-])CC2`
< 10 nM

I'd like to know its GI50. The compound in question is `COc1cc2c(c(OC)c1OC)-c1ccc(SC)c(=O)cc1[C@@H](NCc1cccc(C#N)c1)CC2`
< 7.59 nM

I'd like to know its GI50. The compound in question is `COc1cc2c(c(OC)c1OC)-c1ccc(OC)c(=O)cc1[C@@H](NC(C)=O)CC2`
< 63.1 nM

I'd like to know its GI50. The compound in question is `CCCCCC(=O)N[C@H]1CCc2cc(OC)c(OC)c(OC)c2-c2ccc(SC)c(=O)cc21`
< 10 nM

I'd like to know its GI50. The compound in question is `COc1cc(C(=O)N[C@H]2CCc3cc(OC)c(OC)c(OC)c3-c3ccc(SC)c(=O)cc32)cc(OC)c1OC`
< 10 nM

I'd like to know its GI50. The compound in question is `COc1cc2c(c(OC)c1OC)-c1ccc(SC)c(=O)cc1[C@@H](NC(=O)c1ccc(OC(C)=O)cc1)CC2`
15.1 nM

I'd like to know its GI50. The compound in question is `COc1cc2c(c(OC)c1OC)-c1ccc(SC)c(=O)cc1[C@@H](NC(=O)c1ccc([N+](=O)[O-])cc1)CC2`
< 10 nM

---

Known GI50 of a selection of compounds
- Test system: OVCAR
- Experiment summary: In vitro cytotoxicity against OVCAR cell line.
- Format: functional
- Assay setup: Homo sapiens
Report the value in nM with no unit label.

Record `COc1cc2c(c(OC)c1OC)-c1ccc(SC)c(=O)cc1[C@@H](NC(=O)c1cccc([N+](=O)[O-])c1)CC2` : what is its GI50 with OVCAR?
19.1

Record `CCOC(=O)c1c(OC)cc(C(=O)N[C@H]2CCc3cc(OC)c(OC)c(OC)c3-c3ccc(SC)c(=O)cc32)cc1OC` : what is its GI50 with OVCAR?
32.4

---

- System: A549
- Experiment summary: In vitro cytotoxicity against A549/ATCC cell line.
- Assay type: functional
- Assay setup: Homo sapiens
Known GI50 of a selection of compounds

Here is how some compounds turned out for GI50.
> print(dat)
                            chemical.smiles  system.under.test   result
1  COc1cc2c(c(OC)c1OC)-c1ccc(SC)c(=O)cc1[C@@H](NC(=O)c1ccc(C#N)cc1)CC2               A549  < 10 nM
2  COc1cc2c(c(OC)c1OC)-c1ccc(SC)c(=O)cc1[C@@H](NCc1ccccc1[N+](=O)[O-])CC2               A549  < 10 nM
3  COc1cc2c(c(OC)c1OC)-c1ccc(SC)c(=O)cc1[C@@H](NCc1cccc([N+](=O)[O-])c1)CC2               A549  < 10 nM

Record `CCOC(=O)c1c(OC)cc(C(=O)N[C@H]2CCc3cc(OC)c(OC)c(OC)c3-c3ccc(SC)c(=O)cc32)cc1OC` : what is its GI50 with A549?
427 nM

Record `COc1cc(C(=O)N[C@H]2CCc3cc(OC)c(OC)c(OC)c3-c3ccc(SC)c(=O)cc32)cc(OC)c1OC` : what is its GI50 with A549?
17 nM

Record `COc1cc2c(c(OC)c1OC)-c1ccc(SC)c(=O)cc1[C@@H](NCc1ccc(F)cc1)CC2` : what is its GI50 with A549?
< 7.59 nM

Record `COc1cc2c(c(OC)c1OC)-c1ccc(SC)c(=O)cc1[C@@H](NC(=O)c1ccc(OC(C)=O)cc1)CC2` : what is its GI50 with A549?
< 100 nM

Record `COc1cc2c(c(OC)c1OC)-c1ccc(SC)c(=O)cc1[C@@H](NC(=O)c1ccc(F)cc1)CC2` : what is its GI50 with A549?
49 nM

---

- System: HCT-15
- Experiment summary: In vitro cytotoxicity against HCT-15 cell line.
- Format: functional
- Assay setup: Homo sapiens
Known GI50 of a selection of compounds

> print(dat)
                            chemical.smiles     result
1  COc1ccc(CN[C@H]2CCc3cc(OC)c(OC)c(OC)c3-c3ccc(SC)c(=O)cc32)c(OC)c1OC    < 10 nM
2  COc1cc2c(c(OC)c1OC)-c1ccc(SC)c(=O)cc1[C@@H](NCc1cccc(C#N)c1)CC2  < 7.59 nM
3  COc1cc2c(c(OC)c1OC)-c1ccc(SC)c(=O)cc1[C@@H](NCc1ccccc1[N+](=O)[O-])CC2    < 10 nM
4  COc1cc2c(c(OC)c1OC)-c1ccc(SC)c(=O)cc1[C@@H](NCc1ccc(F)cc1)CC2  < 7.59 nM
5  COc1cc2c(c(OC)c1OC)-c1ccc(SC)c(=O)cc1[C@@H](NCc1ccc(C#N)cc1)CC2    < 10 nM
6  COc1cc2c(c(OC)c1OC)-c1ccc(SC)c(=O)cc1[C@@H](NC(=O)c1ccc(Cl)cc1)CC2    < 10 nM
7  COc1cc2c(c(OC)c1OC)-c1ccc(OC)c(=O)cc1[C@@H](NC(C)=O)CC2  < 63.1 nM
8  COc1cc2c(c(OC)c1OC)-c1ccc(SC)c(=O)cc1[C@@H](NC(=O)c1ccc(C#N)cc1)CC2    < 10 nM

Record `CCCCCC(=O)N[C@H]1CCc2cc(OC)c(OC)c(OC)c2-c2ccc(SC)c(=O)cc21` : what is its GI50 with HCT-15?
< 10 nM

---

- System under test: Tubulin
- Experiment summary: In vitro inhibition of tubulin polymerization.
Result type: pIC50
Conceptually, pIC50 converts a concentration in mol/L into minus its log10.

Here is how some molecules turned out for pIC50.
> print(dat)
                            chemical.smiles  result.type  recorded.number
1  COc1cc2c(c(OC)c1OC)-c1ccc(SC)c(=O)cc1[C@@H](NCc1ccc([N+](=O)[O-])cc1)CC2        pIC50             5.55
2  COc1cc(CN[C@H]2CCc3cc(OC)c(OC)c(OC)c3-c3ccc(SC)c(=O)cc32)cc(OC)c1        pIC50             5.47
3  COc1cc2c(c(OC)c1OC)-c1ccc(SC)c(=O)cc1[C@@H](NCc1ccccc1[N+](=O)[O-])CC2        pIC50             5.49
4  COc1cc2c(c(OC)c1OC)-c1ccc(SC)c(=O)cc1[C@@H](NCc1cccc([N+](=O)[O-])c1)CC2        pIC50             5.55
5  COc1cc2c(c(OC)c1OC)-c1ccc(SC)c(=O)cc1[C@@H](NC(=O)c1cccc([N+](=O)[O-])c1)CC2        pIC50             5.47
6  COc1cc2c(c(OC)c1OC)-c1ccc(SC)c(=O)cc1[C@@H](NCc1cccc(C#N)c1)CC2        pIC50             5.60

I'd like to know its pIC50. The molecule in question is `COc1cc2c(c(OC)c1OC)-c1ccc(SC)c(=O)cc1[C@@H](NCc1ccc(F)cc1)CC2`
5.64

I'd like to know its pIC50. The molecule in question is `COc1ccc(CN[C@H]2CCc3cc(OC)c(OC)c(OC)c3-c3ccc(SC)c(=O)cc32)c(OC)c1OC`
5.60

I'd like to know its pIC50. The molecule in question is `COc1cc2c(c(OC)c1OC)-c1ccc(SC)c(=O)cc1[C@@H](NCc1ccc(C#N)cc1)CC2`
5.64
